species: Homo sapiens; experiment: Selectivity ratio of relative binding affinity for human ERalpha to relative binding affinity to human ERbeta
result-type: Selectivity ratio

In the examples that follow, each entry is paired with its recorded Selectivity ratio.
>  <compound>
N#C[Se]CCCCCC(=O)Nc1ccc(C2=C(c3ccc(O)cc3)C3CC(S(=O)(=O)N(CC(F)(F)F)c4ccc(Cl)cc4)C2O3)cc1 (centres undefined)

>  <Selectivity ratio>
752

$$$$
>  <compound>
N#C[Se]CC(=O)Nc1ccc(C2=C(c3ccc(O)cc3)C3CC(S(=O)(=O)Oc4ccccc4)C2O3)cc1 (centres undefined)

>  <Selectivity ratio>
2.38

$$$$

(P) N#C[Se]CCCCCC(=O)Nc1ccc(C2=C(c3ccc(O)cc3)C3CC(S(=O)(=O)Oc4ccc(Br)cc4)C2O3)cc1 (centres undefined)
(Q) CCN(c1ccccc1OC)S(=O)(=O)C1CC2OC1C(c1ccc(NC(=O)CCCCC[Se]C#N)cc1)=C2c1ccc(O)cc1 (centres undefined)
Higher Selectivity ratio between P and Q ? Respond with the label that goes with your answer.
Q

* * *

target: Estrogen receptor beta (Homo sapiens); assay: Binding affinity to human ERbeta assessed as relative binding affinity incubated under vibration for 1 min followed by 2 hrs incubation under dark condition by fluorescence polarization assay relative to estradiol; details: time 121.0 min
result-type: RBA (%)

In the examples that follow, each entry is paired with its recorded RBA.
>  <compound>
N#C[Se]CCCCCC(=O)Nc1ccc(C2=C(c3ccc(O)cc3)C3CC(S(=O)(=O)Oc4cccc5ccccc45)C2O3)cc1 (stereo not given)

>  <assay-system>
Estrogen receptor beta (Homo sapiens)

>  <RBA / %>
9

$$$$
>  <compound>
CCN(c1ccccc1F)S(=O)(=O)C1CC2OC1C(c1ccc(NC(=O)CCCCC[Se]C#N)cc1)=C2c1ccc(O)cc1 (stereo not given)

>  <assay-system>
Estrogen receptor beta (Homo sapiens)

>  <RBA / %>
0.46

$$$$

(1) COc1ccc(N(CC(F)(F)F)S(=O)(=O)C2CC3OC2C(c2ccc(NC(=O)CCCCCCC[Se]C#N)cc2)=C3c2ccc(O)cc2)cc1 (stereo not given)
(2) N#C[Se]CCCCCC(=O)Nc1ccc(C2=C(c3ccc(O)cc3)C3CC(S(=O)(=O)N(CC(F)(F)F)c4ccc(Cl)cc4)C2O3)cc1 (stereo not given)
Record comparison, field RBA: mark the lower of 1 and 2 . Respond with the label that goes with your answer.
2

* * *

organism: Homo sapiens; assay: Selectivity ratio of relative binding affinity for human ERalpha to relative binding affinity to human ERbeta
result-type: Selectivity ratio

In the examples that follow, each entry is paired with its recorded Selectivity ratio.
>  <compound>
N#C[Se]CCCCCC(=O)Nc1ccc(C2=C(c3ccc(O)cc3)C3CC(S(=O)(=O)N(CC(F)(F)F)c4ccccc4)C2O3)cc1 (configuration not stated)

>  <number>
13

$$$$
>  <compound>
COc1cccc(N(CC(F)(F)F)S(=O)(=O)C2CC3OC2C(c2ccc(NC(=O)CCCCC[Se]C#N)cc2)=C3c2ccc(O)cc2)c1 (configuration not stated)

>  <number>
11.1

$$$$

(P) N#C[Se]CCCCCC(=O)Nc1ccc(C2=C(c3ccc(O)cc3)C3CC(S(=O)(=O)Oc4cccc(Cl)c4)C2O3)cc1 (configuration not stated)
(Q) COc1ccc(N(CC(F)(F)F)S(=O)(=O)C2CC3OC2C(c2ccc(O)cc2)=C3c2ccc(O)cc2)cc1 (configuration not stated)
(R) Cc1ccc(OS(=O)(=O)C2CC3OC2C(c2ccc(NC(=O)CCCCC[Se]C#N)cc2)=C3c2ccc(O)cc2)cc1 (configuration not stated)
(S) CCN(c1ccc(OC)cc1)S(=O)(=O)C1CC2OC1C(c1ccc(NC(=O)CCCCCCC[Se]C#N)cc1)=C2c1ccc(O)cc1 (configuration not stated)
(T) CCN(c1cccc(Cl)c1)S(=O)(=O)C1CC2OC1C(c1ccc(NC(=O)CCCCC[Se]C#N)cc1)=C2c1ccc(O)cc1 (configuration not stated)
hey, can you rank those compounds up there by Selectivity ratio? biggest number first please Answer with the labels in sequence, matching the requested order.
T, P, S, Q, R

* * *

assay: Selectivity index, ratio of IC50 for cytotoxicity against human MCF-10A cells to IC50 for antiproliferative activity against human MCF7 cells; format: toxicity, cell-based; conditions: MCF-10A cells and MCF7 cells, read-out: Ratio IC50
result-type: selectivity ratio
Answer using only a numeral; do not append any unit.

>  <compound>
CCN(c1ccccc1Cl)S(=O)(=O)C1CC2OC1C(c1ccc(NC(=O)CCCCC[Se]C#N)cc1)=C2c1ccc(O)cc1 (centres undefined)

>  <result-type>
selectivity ratio

>  <number>
108

$$$$
>  <compound>
N#C[Se]CCCCCCOc1ccc(OS(=O)(=O)C2CC3OC2C(c2ccc(O)cc2)=C3c2ccc(O)cc2)cc1 (centres undefined)

>  <result-type>
selectivity ratio

>  <number>
2.1

$$$$
>  <compound>
N#C[Se]CCCCCC(=O)Nc1ccc(C2=C(c3ccc(O)cc3)C3CC(S(=O)(=O)Oc4cccc(Cl)c4)C2O3)cc1 (centres undefined)

>  <result-type>
selectivity ratio

>  <number>
42.4

$$$$

Hello, please tell me recorded selectivity ratio for this one: N#C[Se]CCCCCC(=O)Nc1ccc(C2=C(c3ccc(O)cc3)C3CC(S(=O)(=O)Oc4cccc(Br)c4)C2O3)cc1 (centres undefined)
18.5

* * *

selectivity ratio by entry:
test: Selectivity index, ratio of IC50 for cytotoxicity against human MCF-10A cells to IC50 for antiproliferative activity against human MCF7 cells; assay type: toxicity, cell-based; details: MCF-10A cells and MCF7 cells, read-out: Ratio IC50
Answer using only a numeral; do not append any unit.

>  <molecule>
CCN(c1ccccc1OC)S(=O)(=O)C1CC2OC1C(c1ccc(NC(=O)CCCCC[Se]C#N)cc1)=C2c1ccc(O)cc1 (centres undefined)

>  <result-type>
selectivity ratio

>  <number>
37.9

$$$$
>  <molecule>
N#C[Se]CCCCCC(=O)Nc1ccccc1

>  <result-type>
selectivity ratio

>  <number>
0.64

$$$$
>  <molecule>
CCN(c1cccc(F)c1)S(=O)(=O)C1CC2OC1C(c1ccc(NC(=O)CCCCC[Se]C#N)cc1)=C2c1ccc(O)cc1 (centres undefined)

>  <result-type>
selectivity ratio

>  <number>
30.6

$$$$
>  <molecule>
N#C[Se]CCCCCC(=O)Nc1ccc(C2=C(c3ccc(O)cc3)C3CC(S(=O)(=O)Oc4ccccc4O)C2O3)cc1 (centres undefined)

>  <result-type>
selectivity ratio

>  <number>
23.4

$$$$
>  <molecule>
COc1cccc(OS(=O)(=O)C2CC3OC2C(c2ccc(NC(=O)CCCCC[Se]C#N)cc2)=C3c2ccc(O)cc2)c1 (centres undefined)

>  <result-type>
selectivity ratio

>  <number>
7.99

$$$$

Would you kindly look at the next entry?
Hello, please tell me recorded selectivity ratio for this one: N#C[Se]CCCCCC(=O)Nc1ccc(C2=C(c3ccc(O)cc3)C3CC(S(=O)(=O)N(CC(F)(F)F)c4cccc(F)c4)C2O3)cc1 (centres undefined)
15.3

* * *

Target: UniProtKB P03372
Sequence (whole entry): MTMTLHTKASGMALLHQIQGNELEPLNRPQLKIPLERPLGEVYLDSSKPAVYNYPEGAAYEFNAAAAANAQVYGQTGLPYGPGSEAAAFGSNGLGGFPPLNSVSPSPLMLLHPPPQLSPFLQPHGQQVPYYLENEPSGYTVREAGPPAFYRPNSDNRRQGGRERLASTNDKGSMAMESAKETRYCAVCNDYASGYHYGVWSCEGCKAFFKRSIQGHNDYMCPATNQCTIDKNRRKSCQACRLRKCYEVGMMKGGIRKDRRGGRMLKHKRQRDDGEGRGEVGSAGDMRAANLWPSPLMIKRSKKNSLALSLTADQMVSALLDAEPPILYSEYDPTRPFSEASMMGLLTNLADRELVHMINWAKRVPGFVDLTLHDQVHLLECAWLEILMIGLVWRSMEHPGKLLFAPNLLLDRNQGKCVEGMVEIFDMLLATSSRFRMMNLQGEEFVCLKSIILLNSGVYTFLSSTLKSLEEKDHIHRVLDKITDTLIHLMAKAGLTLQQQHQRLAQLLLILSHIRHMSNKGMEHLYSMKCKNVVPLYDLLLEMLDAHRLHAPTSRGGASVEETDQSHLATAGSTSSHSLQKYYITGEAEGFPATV
Test: Binding affinity to human ERalpha assessed as relative binding affinity incubated under vibration for 1 min followed by 2 hrs incubation under dark condition by fluorescence polarization assay relative to estradiol
Conditions: time 121.0 min
result-type: RBA (%)

>  <compound>
N#C[Se]CC(=O)Nc1ccc(C2=C(c3ccc(O)cc3)C3CC(S(=O)(=O)Oc4ccccc4)C2O3)cc1 (configuration not stated)

>  <result-type>
RBA

>  <number>
0.57

$$$$
>  <compound>
N#C[Se]CCCCCC(=O)Nc1ccc(C2=C(c3ccc(O)cc3)C3CC(S(=O)(=O)Oc4ccc(C(F)(F)F)cc4)C2O3)cc1 (configuration not stated)

>  <result-type>
RBA

>  <number>
4.43

$$$$
>  <compound>
N#C[Se]CCCCCC(=O)Nc1ccc(C2=C(c3ccc(O)cc3)C3CC(S(=O)(=O)Oc4ccccc4F)C2O3)cc1 (configuration not stated)

>  <result-type>
RBA

>  <number>
17.4

$$$$
>  <compound>
N#C[Se]CCCCCC(=O)Nc1ccc(C2=C(c3ccc(O)cc3)C3CC(S(=O)(=O)N(CC(F)(F)F)c4cccc(F)c4)C2O3)cc1 (configuration not stated)

>  <result-type>
RBA

>  <number>
4.64

$$$$
>  <compound>
Cc1ccccc1OS(=O)(=O)C1CC2OC1C(c1ccc(NC(=O)CCCCC[Se]C#N)cc1)=C2c1ccc(O)cc1 (configuration not stated)

>  <result-type>
RBA

>  <number>
14.1

$$$$

(I) N#C[Se]CCCCCC(=O)Nc1ccc(C2=C(c3ccc(O)cc3)C3CC(S(=O)(=O)Oc4ccccc4Br)C2O3)cc1 (configuration not stated)
(II) N#C[Se]CCCCCC(=O)Nc1ccc(C2=C(c3ccc(O)cc3)C3CC(S(=O)(=O)N(CC(F)(F)F)c4ccc(F)cc4)C2O3)cc1 (configuration not stated)
Record comparison, field RBA: mark the lower of I and II . Respond with the label that goes with your answer.
I
